// provenance: PubChem BioAssay

assay: small-molecule binders of probe aNOTCH3, primary screen, biochemical, small-molecule microarray, 635/667 nm fluorescence (AID 1120);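 note: probe is a biotin-tagged antibody raised against NOTCH3 rather than NOTCH3 protein; score merges spot fluorescence near 667 nm with spot signal to noise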
measurementContext: higher = more signal
// reported composite z-score per item
experimentalReadout: composite z-score

compound	experimentalReadout	result
NC(=O)NCC#Cc1ccc2c(c1)[C@]1(C(=O)N2)[C@H](C(=O)Nc2nc3ccccc3s2)[C@H]2C(=O)O[C@H](c3ccccc3)[C@H](c3ccccc3)N2[C@@H]1c1ccc(O)cc1	composite z-score	0.114
O=C1C2C=CC(C(O)c3cc(C(F)(F)F)cc(C(F)(F)F)c3)N(Nc3ccc([N+](=O)[O-])cc3)C2C(=O)N1c1ccccc1 (stereo unspecified)	composite z-score	0.37
CN(C)CCCNC(=O)[C@@H]1c2ccccc2C(=O)N(Cc2ccc(OC(F)(F)F)cc2)[C@H]1c1ccc(CO)cc1	composite z-score	0.0469
C=CCNC(=O)[C@@H]1[C@H]2C(=O)O[C@H](c3ccccc3)[C@H](c3ccccc3)N2[C@H](c2ccccc2OCCO)[C@@]12C(=O)N(C(=O)OCCOC)c1ccc(C#CC3=CCCCC3)cc12	composite z-score	-0.0699
[N-]=[N+]=NCc1ccccc1C[C@@]1(C(=O)N2CCCCC2)N=C(c2ccc(OCCCO)cc2)O[C@@H]1c1ccccc1N=[N+]=[N-]	composite z-score	0.0522
COc1c(C)cc(-c2cc3c(c(Cc4ccccc4)n2)[Si](C(C)C)(C(C)C)OC3)cc1C	composite z-score	-0.0881

* * *

assay: small-molecule microarray binders of probe aShh, primary screen, biochemical, biotinylated probe, 635/667 nm fluorescence (AID 1114);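 note: probe is biotin-labelled aShh protein from a stem cell growth factor screen; measures binding of labelled protein to compounds printed on the slide; score merges feature fluorescence at 667 nm with signal-to-noise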
measurementContext: higher = more signal
experimentalReadout: composite z-score

compound	result
NC(=O)NCC#Cc1ccc2c(c1)[C@]1(C(=O)N2)[C@H](C(=O)O)[C@H]2C(=O)O[C@H](c3ccccc3)[C@H](c3ccccc3)N2[C@@H]1c1ccccc1OCCO	-0.412
CC(=O)N1Cc2ccccc2C[C@]2(N=C(c3ccc(OCCCO)cc3)O[C@@H]2c2ccccc2)C1=O	0.163
NC(N)=NCc1cn(CCc2c[nH]c3ccccc23)nn1	0.0141
C=C(CCCC)/C(=C/C[C@@H](OC(C)=O)c1ccc(CO)o1)c1cc(C(=O)OC)ccc1OC	-0.232
C=CC[C@@]1(C(=O)N2CCCCC2)N=C(c2ccc(OCCCO)cc2)O[C@@H]1c1ccccc1	-0.0243
C=C[C@@H](C)[C@H](OC(=O)Nc1ccc(SC)cc1)c1ccc(OCCO)cc1	-0.206
C=C1C2CC3C(=C4C(CO[C@@H]4[C@H]4CCCN4S(=O)(=O)c4ccccc4[N+](=O)[O-])C4C(=O)N(C)C(=O)C34)CC2C(=O)N1C (stereo partly drawn)	-0.0769
NC(=O)N1C(=O)C2C(C1=O)C1C=C(CCCO)C2C(c2cccs2)N1Cc1cc2c(cc1Br)OCO2 (stereo not drawn)	0.147

* * *

Quick reference: z-score of the listed items.
assay: PSAC antagonists in infected red cells, primary screen, cell-based, P. falciparum Indochina, OD700, 18 h (AID 1157)
measurementContext: P. falciparum Indochina infected erythrocytes, osmotic lysis OD700, 18 h; higher = more signal, called active from +8 up or from −8 down
Activity calls are given as the source filed them.

molecule	z-score
COc1ccc([Si](C)(C)[C@@H]2[C@@H](CCn3cc([C@H](O)c4ccccc4)nn3)O[C@]3(C(=O)N(Cc4ccc(N5CCOC5=O)cc4)c4ccccc43)[C@H]2C)cc1	1.63 (inactive)
C=CC1c2cc(O)c(OC)cc2CCN1Cc1sc2ccccc2c1Cl (stereo not given)	1.41 (inactive)
CC=CC(O)C1C=CC2C(=O)N(c3ccccc3)C(=O)C2N1Nc1ccccc1 (stereo not given)	1.17 (inactive)
COCCCNC(=O)[C@@]1(Sc2ccc(C)cc2)CC(=O)N(Cc2cc(C(F)(F)F)cc(C(F)(F)F)c2)[C@@H]1c1ccc(CO)cc1	0.302 (inactive)
COCCOC(=O)N1C(=O)[C@@]2(c3cc(C#CC4(O)CCCCCC4)ccc31)[C@H](C(N)=O)[C@H]1C(=O)O[C@H](c3ccccc3)[C@H](c3ccccc3)N1[C@@H]2c1ccc(O)cc1	-0.125 (inactive)
C=C1C2CC3C(=C4C(CO[C@@H]4[C@H]4CCCN4S(=O)(=O)c4ccccc4[N+](=O)[O-])C4C(=O)N(C)C(=O)C34)CC2C(=O)N1C (stereo not given in full)	-0.0387 (inactive)
COc1ccc(NC(=O)O[C@H]2[C@H](OC(=O)Nc3ccc4c(c3)OCO4)[C@@H](OC(=O)Nc3ccc4c(c3)OCO4)[C@@H](OC)O[C@@H]2CO)cc1	0.521 (inactive)
CC(C)N1CC=CC23O[C@@H]4C=CCCOC(=O)C4[C@H]2C(=O)N(CCO)[C@@H]3C1=O (stereo not given in full)	0.406 (inactive)
CC(CO)N1C(=O)[C@@H]2C3C(=O)OCCC/C=C\[C@H]3OC23C=CCN(Cn2nnc4ccccc42)C(=O)[C@@H]13 (stereo not given in full)	0.502 (inactive)
O=C1OCCC=C[C@H]2OC34C=CCN(c5ccc(Cl)cc5)C(=O)[C@H]3N(CCCCCO)C(=O)[C@@H]4C12 (stereo not given in full)	0.795 (inactive)
C=C(COC)/C(=C/C[C@@H](OC(=O)c1ccncc1)c1ccc(CO)o1)c1cnc2ccccc2c1	0.234 (inactive)
CCOC(=O)C[C@H]1[C@H](OC(=O)c2ccc(-c3ccccc3)cc2)[C@@H](NC(=O)C2CCCCC2)c2cc(OCCCO)ccc2N1C(=O)c1ccccc1	0.505 (inactive)
COc1ccccc1CN1C(=O)c2ccccc2[C@](Cc2ccccc2I)(C(=O)NC(C)C)[C@@H]1c1ccc(CO)cc1	0.621 (inactive)
O=C(O)[C@H](Cc1ccccc1)n1cc(-c2ccccn2)nn1	-0.0561 (inactive)
COCCCNC(=O)[C@]1(CCC(=O)OC(C)(C)C)N=C(c2ccc(OCCCO)cc2)O[C@@H]1c1ccccc1	0.57 (inactive)
